target: human JAK3 (a.a. 781-1124) (Homo sapiens); construct: JAK3 (a.a. 781-1124); His tag (N); made in house; host or cells: insect cells (baculovirus); assay: In vitro JAK kinase assay (HTRF, phosphorylation of a biotinylated peptide), JAK3; format: biochemical; conditions: method AA1 (3 μM ATP) or AA2 (1000 μM ATP), not stated per value
Sequence (P52333 781-1124): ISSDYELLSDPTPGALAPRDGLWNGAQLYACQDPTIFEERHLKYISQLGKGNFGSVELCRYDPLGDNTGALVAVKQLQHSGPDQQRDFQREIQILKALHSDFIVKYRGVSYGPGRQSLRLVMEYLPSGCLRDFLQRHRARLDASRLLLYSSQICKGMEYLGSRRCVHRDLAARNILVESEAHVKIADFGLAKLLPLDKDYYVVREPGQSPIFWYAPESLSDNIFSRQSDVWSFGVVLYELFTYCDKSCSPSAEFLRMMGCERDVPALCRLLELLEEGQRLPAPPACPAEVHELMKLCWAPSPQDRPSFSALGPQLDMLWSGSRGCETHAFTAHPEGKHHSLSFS
pIC50: −log10 of the molar value. Where a name gives a salt, the structure may show the parent alone.
Is pIC50 at least 7? Then YES. If not, NO.

> print(dat)
                                   compound  group
1  Oc1ccc2cc1Nc1nc(ncc1Cl)Nc1cccc(c1)CC2 [Example A26, trifluoroacetate]    YES
2  O=C(CC1CCN(C(=O)c2ccc(F)cc2)CC1)Nc1ccc2cc1CCc1cccc(c1)Nc1ncc(Cl)c(n1)N2 [Example A203, trifluoroacetate]     NO
3  CC(C)(C)OC(=O)N1CCC(CC(=O)Nc2ccc3cc2CCc2cncc(c2)Nc2ncc(Cl)c(n2)N3)CC1 [Example A70, bis(trifluoroacetate)]     NO
4  N#Cc1ccccc1N1CCC(CC(=O)Nc2ccc3cc2CCc2cncc(c2)Nc2ncc(Cl)c(n2)N3)CC1 [Example A220, tris(trifluoroacetate)]     NO
5  O=C(Nc1ccc2cc1CCc1cccc(c1)Nc1ncc(Cl)c(n1)N2)[C@@H]1CCN(C(=O)Nc2ccccc2)C1 [Example A54, trifluoroacetate]    YES

---

molecular target: UniProt P29597; assay: TYK2 kinase inhibition (Table A1); type: biochemical; settings: Table D1
Sequence (P29597 whole entry): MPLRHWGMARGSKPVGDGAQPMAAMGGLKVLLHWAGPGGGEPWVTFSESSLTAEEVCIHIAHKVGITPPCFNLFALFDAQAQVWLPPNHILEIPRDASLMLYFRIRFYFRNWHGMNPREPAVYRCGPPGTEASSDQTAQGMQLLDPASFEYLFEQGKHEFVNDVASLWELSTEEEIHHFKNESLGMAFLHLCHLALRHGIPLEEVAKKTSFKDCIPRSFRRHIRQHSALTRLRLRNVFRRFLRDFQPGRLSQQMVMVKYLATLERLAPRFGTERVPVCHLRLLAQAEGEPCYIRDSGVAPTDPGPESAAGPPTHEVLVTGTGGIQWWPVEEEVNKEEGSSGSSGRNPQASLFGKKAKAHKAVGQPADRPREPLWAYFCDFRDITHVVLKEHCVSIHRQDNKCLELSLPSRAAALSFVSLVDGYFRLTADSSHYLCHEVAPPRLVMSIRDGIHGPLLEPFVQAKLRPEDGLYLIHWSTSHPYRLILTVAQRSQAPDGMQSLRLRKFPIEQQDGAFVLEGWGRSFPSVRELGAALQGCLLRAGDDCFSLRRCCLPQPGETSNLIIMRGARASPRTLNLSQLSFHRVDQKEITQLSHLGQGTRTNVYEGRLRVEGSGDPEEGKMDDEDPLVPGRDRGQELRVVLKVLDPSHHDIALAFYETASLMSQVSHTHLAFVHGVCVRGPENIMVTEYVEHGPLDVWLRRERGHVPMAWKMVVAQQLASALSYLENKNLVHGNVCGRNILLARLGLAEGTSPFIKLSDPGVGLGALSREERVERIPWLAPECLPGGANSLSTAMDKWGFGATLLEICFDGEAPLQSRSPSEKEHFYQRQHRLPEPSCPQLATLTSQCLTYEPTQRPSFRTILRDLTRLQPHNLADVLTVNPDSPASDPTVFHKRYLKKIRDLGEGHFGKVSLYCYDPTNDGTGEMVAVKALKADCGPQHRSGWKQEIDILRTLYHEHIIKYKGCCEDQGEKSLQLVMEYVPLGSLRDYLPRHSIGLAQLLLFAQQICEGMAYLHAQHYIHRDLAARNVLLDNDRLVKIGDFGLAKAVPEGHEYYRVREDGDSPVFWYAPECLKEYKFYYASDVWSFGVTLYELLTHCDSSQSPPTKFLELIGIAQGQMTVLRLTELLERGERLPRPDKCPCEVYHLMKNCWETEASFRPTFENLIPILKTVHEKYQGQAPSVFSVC
pIC50: −log10 of the molar value.
result.type: pIC50

> print(dat)
                                   molecule  result
1  CC(=O)N1CCN(C(=O)COc2ccc3cc2CCc2cncc(c2)Nc2ncc(Cl)c(n2)N3)CC1 [Example D252, bis(trifluoroacetate)]  < 6.40
2  Cc1occc1NC(=O)N1CCC(CCOc2ccc3cc2CCc2cncc(c2)Nc2ncc(Cl)c(n2)N3)CC1 [Example D164, bis(trifluoroacetate)]  < 6.40
3  Clc1cnc2nc1Nc1cccc(c1)OCCc1cc(cc(-c3cccnc3)c1)N2 [Example D26, bis(trifluoroacetate)]    8.57
4  O=C(Nc1cccc(F)c1)N1CCC(CCOc2ccc3cc2CCc2cncc(c2)Nc2ncc(Cl)c(n2)N3)CC1 [Example D169, bis(trifluoroacetate)]  < 6.40
5  O=C(Nc1cccnc1)N1CCC(CCOc2ccc3cc2CCc2cncc(c2)Nc2ncc(Cl)c(n2)N3)CC1 [Example D182, tris(trifluoroacetate)]  < 6.40
6  CNC(=O)N1CCN(C(=O)COc2ccc3cc2CCc2cncc(c2)Nc2ncc(Cl)c(n2)N3)CC1 [Example D265, bis(trifluoroacetate)]  < 6.40
7  O=C(COc1ccc2cc1CCc1cncc(c1)Nc1ncc(Cl)c(n1)N2)N1CCN(c2cnccn2)CC1 [Example D232, tris(trifluoroacetate)]  < 6.40

---

target: human JAK2 (a.a. 828-1132) (Homo sapiens); construct: JAK2 (a.a. 828-1132); His tag (N); made in house; host or cells: insect cells (baculovirus); experiment: In vitro JAK kinase assay (HTRF, phosphorylation of a biotinylated peptide), JAK2; format: biochemical; details: Table D1
Structures can show the parent of a compound that is named as a salt.
The threshold is 50 nM. Values of IC50 beneath it are tagged Fulfilled; values meeting or exceeding it are tagged Not fulfilled.

> print(dat)
                                    compound          group
 1  O=C(Nc1ccccc1)N1CCC(CCOc2ccc3cc2CCc2cncc(c2)Nc2ncc(Cl)c(n2)N3)CC1 [Example D162, bis(trifluoroacetate)]  Not fulfilled
 2  O=C(NCc1ccco1)N1CCC(CCOc2ccc3cc2CCc2cncc(c2)Nc2ncc(Cl)c(n2)N3)CC1 [Example D165, bis(trifluoroacetate)]  Not fulfilled
 3  O=C(Nc1cc2cc(c1)OCCSc1cccc(c1)Nc1nc(ncc1Cl)N2)c1ccncc1 [Example D60, bis(trifluoroacetate)]      Fulfilled
 4  Clc1cnc2nc1Nc1cccc(c1)CCSCc1cccc(c1)N2 [Example D34, trifluoroacetate]  Not fulfilled
 5  Cc1cc(C(=O)N2CCN(C(=O)COc3ccc4cc3CCc3cncc(c3)Nc3ncc(Cl)c(n3)N4)CC2)n[nH]1 [Example D266, tris(trifluoroacetate)]      Fulfilled
 6  Clc1cnc2nc1Nc1cccc(c1)SCCc1cccc(c1)N2 [Example D18, trifluoroacetate]      Fulfilled
 7  O=C(COc1ccc2cc1CCc1cncc(c1)Nc1ncc(Cl)c(n1)N2)N1CCN(c2cc(Cl)ccn2)CC1 [Example D244, tris(trifluoroacetate)]  Not fulfilled
 8  COC(=O)c1cc2cc(c1)OCCSc1cccc(c1)Nc1nc(ncc1Cl)N2 [Example D43, trifluoroacetate]      Fulfilled
 9  Clc1cnc2nc1Nc1cccc(c1)NCCCc1cccc(c1)N2 [Example D75, bis(trifluoroacetate)]      Fulfilled
10  O=C(COc1ccc2cc1CCc1cncc(c1)Nc1ncc(Cl)c(n1)N2)N1CCN(c2ccncc2)CC1 [Example D243, tris(trifluoroacetate)]  Not fulfilled
11  Cn1cc(C(=O)N2CC[C@@H](CC(=O)Nc3ccc4cc3CCc3cncc(c3)Nc3ncc(Cl)c(n3)N4)C2)cn1 [Example D122, bis(trifluoroacetate)]  Not fulfilled
12  O=C(C[C@@H]1CCCNC1)Nc1ccc2cc1CCc1cncc(c1)Nc1ncc(Cl)c(n1)N2 [Example D194]      Fulfilled
13  CC(=O)N1CCN(c2cc(-c3cc4cc(c3)Nc3ncc(Cl)c(n3)Nc3cccc(c3)OCC4)ccn2)CC1 [Example D35, bis(trifluoroacetate)]      Fulfilled
14  O=C(Cn1c(=O)oc2c3cc(cc21)Nc1nc(ncc1Cl)Nc1cccc(c1)CC3)N1CCN(c2ccccc2)CC1 [Example D188, bis(trifluoroacetate)]      Fulfilled
15  O=C(CC1CN(C(=O)c2cn[nH]c2)C1)Nc1ccc2cc1CCc1cncc(c1)Nc1ncc(Cl)c(n1)N2 [Example D149, bis(trifluoroacetate)]  Not fulfilled
16  O=C(COc1ccc2cc1CCc1cncc(c1)Nc1ncc(Cl)c(n1)N2)N1CCN(c2cccc(Cl)n2)CC1 [Example D240, tris(trifluoroacetate)]  Not fulfilled
17  O=C(C[C@H]1CCN(C(=O)Nc2cccnc2)C1)Nc1ccc2cc1CCc1cncc(c1)Nc1ncc(Cl)c(n1)N2 [Example D101, tris(trifluoroacetate)]  Not fulfilled
18  O=C(Nc1cc2cc(c1)OCCSc1cccc(c1)Nc1nc(ncc1Cl)N2)c1cccs1 [Example D63, trifluoroacetate]      Fulfilled

---

molecular target: human JAK2 (a.a. 828-1132) (Homo sapiens); construct: JAK2 (a.a. 828-1132); His tag (N); made in house; host or cells: insect cells (baculovirus); assay: In vitro JAK kinase assay (HTRF, phosphorylation of a biotinylated peptide), JAK2; format: biochemical; details: Table B1
pIC50: −log10 of the molar value. Where a name gives a salt, the structure may show the parent alone.
result.type: pIC50

> print(dat)
                                   compound                             system.tested  result.type  recorded.number
1  Clc1nccc(N2CCN(Cc3cc4cc(c3)Nc3nc(ncc3Cl)Nc3cccc(c3)CC4)CC2)n1 [Example B218, tris(trifluoroacetate)]  human JAK2 (a.a. 828-1132) (Homo sapiens)        pIC50             7.60
2  Cn1ccc2c(NC(=O)Nc3ccc4cc3CCc3cccc(c3)Nc3ncc(Cl)c(n3)N4)cccc21 [Example B125, trifluoroacetate]  human JAK2 (a.a. 828-1132) (Homo sapiens)        pIC50             8.00
3  Cc1ccccc1C(=O)Nc1ccc2cc1CCc1cccc(c1)Nc1ncc(Cl)c(n1)N2 [Example B35, trifluoroacetate]  human JAK2 (a.a. 828-1132) (Homo sapiens)        pIC50             9.46
4  CSc1ccccc1NC(=O)Nc1ccc2cc1CCc1cccc(c1)Nc1ncc(Cl)c(n1)N2 [Example B107, trifluoroacetate]  human JAK2 (a.a. 828-1132) (Homo sapiens)        pIC50             8.64

---

molecular target: human JAK2 (a.a. 828-1132) (Homo sapiens, UniProt O60674); construct: JAK2 (a.a. 828-1132); His tag (N); made in house; host or cells: insect cells (baculovirus); experiment: In vitro JAK kinase assay (HTRF, phosphorylation of a biotinylated peptide), JAK2; type: biochemical; details: Table D1
Sequence (O60674 828-1132): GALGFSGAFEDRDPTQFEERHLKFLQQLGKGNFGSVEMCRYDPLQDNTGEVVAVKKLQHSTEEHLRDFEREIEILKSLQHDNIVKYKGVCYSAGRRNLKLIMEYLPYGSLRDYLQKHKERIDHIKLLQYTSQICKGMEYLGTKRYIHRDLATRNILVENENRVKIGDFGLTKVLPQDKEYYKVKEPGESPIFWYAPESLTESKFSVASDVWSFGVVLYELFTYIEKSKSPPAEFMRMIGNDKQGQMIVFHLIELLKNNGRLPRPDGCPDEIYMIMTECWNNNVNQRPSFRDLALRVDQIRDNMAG
Where a name gives a salt, the structure may show the parent alone.
In this section, each of the compounds is paired with its reported log10(IC50).
result.type: log10(IC50) (log10 of the value in nM)

> print(dat)
                                   compound  result.type  recorded.number
1  O=C(COc1ccc2cc1CCc1cncc(c1)Nc1ncc(Cl)c(n1)N2)N1CCN(C(=O)Nc2ccccc2)CC1 [Example D264, bis(trifluoroacetate)]  log10(IC50)             1.34
2  O=C(C[C@@H]1CCN(C(=O)Nc2ccc(F)cc2)C1)Nc1ccc2cc1CCc1cncc(c1)Nc1ncc(Cl)c(n1)N2 [Example D118, bis(trifluoroacetate)]  log10(IC50)             2.37
3  O=C(Nc1cccc(C(F)(F)F)c1)N1CCN(c2ccc3cc2CCc2cccc(c2)Nc2ncc(Cl)c(n2)N3)CC1 [Example D91, bis(trifluoroacetate)]  log10(IC50)             1.51
4  O=C(COc1ccc2cc1CCc1cncc(c1)Nc1ncc(Cl)c(n1)N2)N1CCN(Cc2ccncc2)CC1 [Example D256, tris(trifluoroacetate)]  log10(IC50)             2.34
5  O=C(C[C@H]1CCCN(C(=O)c2ccccc2)C1)Nc1ccc2cc1CCc1cccc(c1)Nc1ncc(Cl)c(n1)N2 [Example D203, trifluoroacetate]  log10(IC50)             1.11
6  O=C(C[C@H]1CCN(C(=O)c2cn[nH]c2)C1)Nc1ccc2cc1CCc1cncc(c1)Nc1ncc(Cl)c(n1)N2 [Example D129-b, bis(trifluoroacetate)]  log10(IC50)             2.78
